Data origin, for the record: patent US20250101436A1

- Tested on: luciferase gene expression in HEK 293 cells in response to Comp. 004
- Test Description: Screen of riboswitch constructs with 12C6-1 variant aptamers (libraries N1-N5) against Comp. 004, luciferase in HEK 293 cells
- Assay type: cell-based, human
- Condition: library N5 variant aptamers (L5, X16-X21 randomized) of 12C6-1 in riboswitch constructs; in response to Comp. 004 treatment; HEK 293 cells
Label rule, in plain words: Fold (induction of luciferase gene expression) of 600 fold and up is criterion met, under 600 fold is criterion not met.

N5_7F4 (DNA CTGGGGAGTCCT; chemistry not given here) = criterion met

**Q:** Determine whether measured Fold (induction of luciferase gene expression) meets or exceeds 600 fold for N5_1A6 (CTGGGGAGTCCT; chemistry not given here)
**A:** criterion met

**Q:** Reported Fold (induction of luciferase gene expression) reaches at least 600 fold for N5_9E12 (DNA CTGGGGAGTCCT; chemistry not given here) ?
**A:** criterion met

**Q:** # bool: Fold (induction of luciferase gene expression) of N5_8F11 (DNA CTGGGGAGTCCT; chemistry not given here) >= 600 fold
**A:** criterion met

**Q:** I'd appreciate it if you could say whether N5_7C11 (CTGGGGAGTCCT; chemistry not given here) has Fold (induction of luciferase gene expression) at least equal to 600 fold.
**A:** criterion not met
